Quick list: pKa per entry.
assay remarks: physchem
measure name: pKa

* Cc1cc(C(=O)Nc2ccc(-c3ccccc3S(N)(=O)=O)cc2)n(-c2ccc3nc(N)nc(N)c3c2)n1 | 8.1
* Cc1cc(C(=O)Nc2ccc(-c3ccccc3S(N)(=O)=O)cc2)n(-c2ccc(N)cc2)n1 | 4.7
* Cc1cc(C(=O)Nc2ccc(-c3ccccc3S(N)(=O)=O)cc2)n(C2CCCNC2)n1 (stereo not given) | 10
* Cc1cc(C(=O)Nc2ccc(-c3ccccc3S(N)(=O)=O)cc2)n(-c2ccc3ncnc(N)c3c2)n1 | 5.7
* Cc1cc(C(=O)Nc2ccc(-c3ccccc3S(N)(=O)=O)cc2)n(-c2cccc(C(N)=O)c2)n1 | < 0

All values here come from ChEMBL document CHEMBL1145122.
